Tested on: A498 renal
Assay info: NCI tumour cell line growth inhibition, 48 h
*1 amine or outer side, *2 acyl side, *3 side chain or, on linkers, in order; H or OH if unused. Where a SMILES comes first, the peptide text is derived from it. Bridges are numbered along the chain shown (N, C = ends). Roman numbers before positions name the chains, in order. [ ]: non-standard residue; d: D form. Actinocin(9to1) = Cc1c2oc3c(C)ccc(C(=O)[*:1])c3nc-2c(C(=O)[*:2])c(N)c1=O; NMeV = CN[CH](C(=O)O)C(C)C; Sar = CNCC(=O)O
Value type: GI50

Given the entry O=C1/C(=C/c2ccc(F)c(F)c2)CN(C(=O)C(Cl)Cl)C/C1=C\c1ccc(F)c(F)c1 , report its measured GI50.
0.183 µM

# lookup: GI50 of C=C1C(=O)O[C@H]2[C@H]1CC/C(COC(=O)c1cn(C)c3ccccc13)=C\CC[C@@]1(C)O[C@@H]21
1.59 µM

Requested field: GI50. Item: CC/C=C\C[C@H](O)C/C=C1/C(=O)C=C[C@@H]1C/C=C\CCCC(=O)OC(C)C
3 µM

Value lookup for GI50; key = Cc1c2oc3c(C)ccc(C(=O)OC(C)C4NC(=O)C(C(C)C)N(C)C(=O)CN(C)C(=O)C5CCCN5C(=O)C(C(C)C)NC4=O)c3nc-2c(C(=O)OC(C)C2NC(=O)C(C(C)C)N(C)C(=O)CN(C)C(=O)C3CCCN3C(=O)C(C(C)C)NC2=O)c(N)c1=O (stereo unspecified) (I: cyclo([Sar][NMeV]TVP) / II: cyclo([Sar][NMeV]TVP); linker I:3-II:3 via Actinocin(9to1); configuration not given here)
< 0.0107 µM

Bench note: what GI50 did Cc1ccc(-c2c(C#N)[n+](=O)c3cc(F)c(F)cc3n2[O-])cc1 show?
21.1 µM

Please give the measured GI50 for this compound: COc1cc(-c2nn(-c3cccc(NC(=O)NCCNS(=O)(=O)c4ccc(Cl)cc4)c3)cc2-c2ccncc2)ccc1Cl
0.578 µM

====

Tested on: KM20L2 colon
Assay info: NCI tumour cell line growth inhibition, 48 h
Please go through the items and note down their TGI.

Look at this compound and give its reported TGI. N#CNC(=NCc1ccccc1)NCCc1c[nH]c2ccccc12
> 100 µM

Entry S=c1nc(C(c2ccccc2)c2ccccc2)[nH][nH]1 : reported TGI = ?
> 100 µM

Param item = C[N+](C)(C)CCOC(=O)/C=C/c1cnc[nH]1 ; retrieve measured TGI.
> 500 µM

# TGI lookup, item COC1=CC(=O)C2C(C1=O)[C@@H]1c3ccccc3OC(C)(C)[C@H]21 (stereo not given in full)
66.3 µM

Would you mind telling me what TGI value was observed for COc1cc(O)c(C(=O)CC(C)=O)c(OC)c1 ?
> 100 µM

Entry under review: Cc1c(OCCCOc2ccc3c(=O)cc(-c4ccccc4)oc3c2C)ccc2c(=O)cc(-c3ccccc3)oc12 . Reported TGI?
> 100 µM

Reported TGI, compound COc1cccc2c1C(=O)c1c(O)c3c(c(O)c1C2=O)C[C@@](O)(C(C)=O)C[C@@H]3OC1CC([N+]([O-])(Cc2ccccc2)Cc2ccccc2)C(O)C(C)O1 (stereo not given in full) : ____
2.92 µM

I'd like to know its TGI. The compound in question is O=C(NC12CC3CC(CC(C3)C1)C2)C(=O)c1c[nH]c2ccc(Br)cc12
> 100 µM

Given the entry Cc1ccc(NC(=O)C(=O)C(C(=O)c2ccc3ccccc3c2)C2OC(=O)c3ccccc32)c(C)c1 (stereo not given) , report its measured TGI.
56 µM

Record request: TGI value, item Cc1cc2c(cc1C)[n+](=O)c(C(=O)/C=C/c1ccc3c(c1)OCO3)c(C)n2[O-]
> 100 µM

====

Tested on: SK-MEL-28 melanoma
Assay info: NCI tumour cell line growth inhibition, 48 h
Exercise: state measured TGI for each of the compounds provided.

Field request: TGI | item: CCN(CC)CCC(=O)OC1C(C)=CC(C)C(=O)CC(C(C)CC2CCC(O)C(OC)C2)OC(=O)C2CCCCN2C(=O)C(=O)[C@@]2(O)OC(CCC2C)CC(OC)\C(C)=C/C=C/C=C/C(C)CC(C)C(=O)C1OC (stereo partly drawn)
19.3 µM

Would you mind telling me what TGI value was observed for Nc1ccc2nc(Nc3ccc(Cl)c(Cl)c3)cnc2c1 ?
36.8 µM

Which value of TGI has been reported for CC(=O)NNc1nc(C)c(C(/C=C/c2ccc([N+](=O)[O-])cc2)=N/NC(N)=O)s1 in the records?
> 100 µM

Could you tell me which TGI is on file for CC(=O)OC12CC(C(F)(F)F)(C(F)(F)F)OC1(OC(C)=O)CC(C(F)(F)F)(C(F)(F)F)O2 (stereo not drawn) ?
> 100 µM

Entry Brc1c2nc3ccccc3nc2n2ccc3ccccc3c12 : reported TGI = ?
> 100 µM

Can you share its TGI? I mean this compound: Fc1ccc2[nH]cc(-c3nc(-c4c[nH]c5ccncc45)cs3)c2c1
3.33 µM

What measured TGI goes with N#C/C(=C/n1c(=S)[nH]c2ccccc21)C(N)=O ?
> 100 µM

Which TGI is listed for COC1=CC(=O)C(Br)=CC1=O ?
34 µM

GET /values?readout=TGI&item= Cc1cc(C(=O)Nc2cc(Oc3ccc4nc(NC(=O)C5CC5)cn4n3)ccc2C)n(C)n1
> 10 µM

Bench note: what TGI did COc1cccc2c1C(=O)c1c(O)c3c(c(O)c1C2=O)C[C@@](O)(C(=O)CN1CCOCC1)C[C@@H]3OC1CC(N)C(O)C(C)O1 (stereo partly drawn) show?
29.1 µM

Value lookup for TGI; key = Nc1ncn(C2OC(COP(=O)(O)O)C(O)C2O)c(=O)n1 (stereo not drawn)
> 100 µM

I would be grateful if you could share the reported TGI for N#C/C=c1/c2ccccc2n2nc3ccccc3c12 .
> 100 µM

// query TGI value for entry Nc1ncnc2c1sc(=S)n2-c1ccccc1
> 100 µM

TGI lookup needed for O=C(O)/C=C/c1ccc[c]([Sb](=[O])([OH])[OH])c1 , thanks.
> 100 µM

What TGI value was documented for this compound, Cc1ccc(S(=O)(=O)NC(=O)NCCc2ccc(O)c(O)c2)cc1 ?
> 100 µM

Reported TGI, compound C=CCNc1nc(O)c(/C=C2\C=Nc3ncccc32)s1 : ____
9.14 µM

Bench note: what TGI did CCn1c(-c2c(Cl)cc(O)cc2Cl)cc2c(Cl)cc(O)cc21 show?
10.1 µM

Fill in the blank: the reported TGI of C=C(C)[C@@H]1C/C=C(/CO)CC[C@H]2O[C@]2(C)CC/C=C(\C)CC1 is ____.
32.1 µM

Requested read-out: TGI. Entry: CO[C@H]1CC[C@]2(C)C3=CC[C@@]4(C)C(CC[C@@H]4C(C)CC[C@@H](C)C(C)C)C(=CCC2C1)O3 (stereo partly drawn)
> 25 µM

Fill in: TGI of Clc1ccc2nc3n[nH]c(Cl)c3nc2c1 is ___
> 100 µM

Please report the recorded TGI for COc1ccc2c3c(c(C(=O)O)oc13)CCC2 .
> 100 µM

TGI lookup needed for COC1(OC)C2(Cl)C(Cl)=C(Cl)C1(Cl)C1c3ccc(C(C)=O)c4cccc(c34)C12 (stereo not drawn) , thanks.
> 100 µM

Consider the compound Cc1ccc(NC(=O)C(=O)C(C(=O)c2ccc3ccccc3c2)C2OC(=O)c3ccccc32)c(C)c1 (stereo not drawn) and give its measured TGI.
31.2 µM

I would be grateful if you could share the reported TGI for O=C(/C=C/c1ccc(OCc2ccccc2)cc1)NCc1ccc(C(=O)NCc2ccccc2)cc1 .
> 100 µM

Please give the measured TGI for this compound: C[N+](C)(C)CCOC(=O)/C=C/c1cnc[nH]1
> 500 µM

Query: TGI; subject: NCCOCn1cc(Cc2cccc(OCc3ccccc3)c2)c(=O)[nH]c1=O
> 100 µM

Looking for the measured TGI of O=C(N/C(=C\c1c(O)ccc2ccccc12)c1nc2ccccc2[nH]1)c1ccccc1 , can you help?
> 100 µM

Item COc1cccc(Sc2ccc([N+](=O)[O-])c3no[n+]([O-])c23)c1 has what recorded TGI?
14 µM

Requested read-out: TGI. Entry: COC(NC(N)=O)C(=O)O (stereo not drawn)
> 100 µM

Consider the compound shown here: C=C1C(=O)[C@]23C[C@H]1C[C@@H](O)[C@H]2[C@]1(COC3=O)[C@@H](OC(C)=O)CC[C@@](C)(COC(C)=O)[C@H]1C=O What is its recorded TGI?
> 50 µM

Can you look up the measured TGI of CCCCCCCN(CCCCCCC)C(=N)c1ccnc2ccccc12 for me?
3.21 µM

Look up TGI for this compound: CCN(CC)CCCOc1ccc2ncnc(Nc3ccc(Oc4cccc(C(F)(F)F)c4)c(Cl)c3)c2c1
2.99 µM

What does the data say about its TGI? Entry: N/C(=N\S(=O)(=O)c1ccc(-c2ccccn2)s1)Nc1ccc(Cl)cc1
37.8 µM

The measurements presented in this section are drawn from PubChem BioAssay (NCI).
